Known DIGSA phytotoxicity rating of a selection of compounds
- System: large crabgrass (Digitaria sanguinalis, DIGSA)
- Run description: Post-emerge test, greenhouse herbicide activity screening
- Assay type: in vivo
- Assay conditions: post-emerge, 63 g ai/ha, 14 days after application, rating scale 0-100
Form rule: numeric answer, no unit written next to it.

Cn1c(C(F)(F)F)cc(=O)n(-c2c(F)cc(OC(F)F)cc2NC(=O)c2ccc3ccccc3c2)c1=O
40
CCSCC(=O)Nc1c(OC)c(Cl)cc(F)c1-n1c(=O)cc(C(F)(F)F)n(C)c1=O
0
Cn1c(C(F)(F)F)cc(=O)n(-c2ccc(Cl)cc2NC(=O)c2ccc3ccccc3c2)c1=O
30
COc1c(Cl)cc(F)c(-n2c(=O)cc(C(F)(F)F)n(C)c2=O)c1NC(=O)C=Cc1ccccc1[N+](=O)[O-]
20
COc1c(Cl)cc(F)c(-n2c(=O)cc(C(F)(F)F)n(C)c2=O)c1NC(=O)c1ccc2cccc(F)c2c1
0

## Task Consider the compound COc1c(Br)cc(F)c(-n2c(=O)cc(C(F)(F)F)n(C)c2=O)c1N(C(=O)C=Cc1ccccc1)C(=O)C=Cc1ccccc1 . State its measured DIGSA phytotoxicity rating.
## Result 0

## Task Given the compound COc1c(C#N)cc(F)c(-n2c(=O)cc(C(F)(F)F)n(C)c2=O)c1NC(=O)c1ccc2ccccc2c1 , write its reported DIGSA phytotoxicity rating.
## Result 40

Measured values drawn from patent US6355799B1 for this set.
